- tgt: T1, human G-protein-coupled receptor family C group 5 member D (GPRC5D) (human, UniProt Q9NZD1 1-345)
- T1 construct: whole, on cells; also called human GPRC5D protein
- methodSummary: FACS, CHO-K1/GPRC5D
observationType: Top

>>> resultvalue("34-H1L1 (antibody, V domains shown, humanized 34D3H1, VH v1 x VL v1) VH: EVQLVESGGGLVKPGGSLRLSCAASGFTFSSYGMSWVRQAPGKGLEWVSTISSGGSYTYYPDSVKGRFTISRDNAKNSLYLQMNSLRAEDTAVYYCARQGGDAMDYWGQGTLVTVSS VL: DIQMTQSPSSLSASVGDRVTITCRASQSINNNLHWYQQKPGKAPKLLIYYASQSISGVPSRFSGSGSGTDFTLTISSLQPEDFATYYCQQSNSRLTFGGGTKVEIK")
197000
>>> resultvalue("34-H3L4 (antibody, V domains shown, humanized 34D3H1, VH v3 x VL v4) VH: EVHLVESGGGLVKPGGSLRLSCAASGFTFSSYGMSWVRQTPGKRLEWVATISSGGSYTYYPDSVKGRFTISRDNAKNSLNLQMSSLRAEDTAVYYCARQGGDAMDYWGQGTLVTVSS VL: DIVLTQSPSSLSVSVGDRVTLTCRASQSINNNLHWYQQKPGKSPKLLIYYASQSISGIPSRFSGSGSGTDFTLTISSVQPEDFATYFCQQSNSRLTFGGGTKLEIK")
193000
>>> resultvalue("34-H1L2 (antibody, V domains shown, humanized 34D3H1, VH v1 x VL v2) VH: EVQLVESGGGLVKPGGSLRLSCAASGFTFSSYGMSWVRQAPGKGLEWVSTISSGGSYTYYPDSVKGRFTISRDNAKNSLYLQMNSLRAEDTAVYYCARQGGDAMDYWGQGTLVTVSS VL: DIQMTQSPSSLSASVGDRVTITCRASQSINNNLHWYQQKPGKAPKLLIYYASQSISGIPSRFSGSGSGTDFTLTISSVQPEDFATYFCQQSNSRLTFGGGTKVEIK")
182000
